Ref: patent US9096601B2

# measurement.target: MET (Homo sapiens (Human), UniProt P08581)
# Sequence (P08581 25-1390): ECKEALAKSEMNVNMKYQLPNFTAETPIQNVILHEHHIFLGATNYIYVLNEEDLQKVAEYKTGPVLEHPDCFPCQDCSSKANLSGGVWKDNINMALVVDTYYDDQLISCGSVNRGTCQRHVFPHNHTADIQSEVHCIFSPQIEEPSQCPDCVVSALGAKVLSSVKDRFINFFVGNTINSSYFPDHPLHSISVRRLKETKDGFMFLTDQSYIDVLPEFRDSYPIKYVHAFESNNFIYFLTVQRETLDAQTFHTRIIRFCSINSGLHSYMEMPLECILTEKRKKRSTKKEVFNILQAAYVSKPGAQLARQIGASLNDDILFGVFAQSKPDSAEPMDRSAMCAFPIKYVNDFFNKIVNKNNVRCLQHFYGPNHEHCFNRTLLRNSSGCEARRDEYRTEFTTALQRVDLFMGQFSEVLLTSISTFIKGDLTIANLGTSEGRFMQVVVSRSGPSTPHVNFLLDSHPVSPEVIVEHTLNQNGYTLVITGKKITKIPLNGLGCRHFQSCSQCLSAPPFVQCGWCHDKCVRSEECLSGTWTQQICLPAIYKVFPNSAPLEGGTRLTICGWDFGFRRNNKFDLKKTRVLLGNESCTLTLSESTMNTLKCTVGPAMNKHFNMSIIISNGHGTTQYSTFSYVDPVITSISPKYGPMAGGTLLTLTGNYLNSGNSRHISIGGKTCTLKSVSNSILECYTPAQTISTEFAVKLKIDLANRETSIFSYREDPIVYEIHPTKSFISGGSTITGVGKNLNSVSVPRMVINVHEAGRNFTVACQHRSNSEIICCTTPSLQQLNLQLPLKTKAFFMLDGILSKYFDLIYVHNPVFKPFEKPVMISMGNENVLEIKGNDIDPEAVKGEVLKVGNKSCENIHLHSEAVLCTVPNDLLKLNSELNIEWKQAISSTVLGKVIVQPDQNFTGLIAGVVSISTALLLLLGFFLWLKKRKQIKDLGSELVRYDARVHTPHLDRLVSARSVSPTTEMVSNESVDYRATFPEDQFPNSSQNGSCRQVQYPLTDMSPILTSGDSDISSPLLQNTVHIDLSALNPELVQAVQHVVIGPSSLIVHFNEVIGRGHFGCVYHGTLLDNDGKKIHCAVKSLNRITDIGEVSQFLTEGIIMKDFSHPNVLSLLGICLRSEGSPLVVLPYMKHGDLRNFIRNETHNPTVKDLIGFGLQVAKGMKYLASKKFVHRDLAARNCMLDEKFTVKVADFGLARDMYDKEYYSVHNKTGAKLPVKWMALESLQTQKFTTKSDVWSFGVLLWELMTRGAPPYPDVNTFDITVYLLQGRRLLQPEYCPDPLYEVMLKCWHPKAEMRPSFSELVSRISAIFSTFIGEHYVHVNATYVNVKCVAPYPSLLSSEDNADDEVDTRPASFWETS
# assay.explanation: Kinase inhibitory activity, isotopic labeling (γ-33P-ATP)
# Assay type: biochemical
# stated.conditions: compound at 10 μM
# Procedure: The object of this assay was to test the inventive compounds for the kinase inhibitory activity in vitro. In this assay, an isotopic labeling method was used to label the γ phosphate group on ATP. EGFR (including wild type, L858R mutant type and L858R/T790M double mutant type), VEGFR2, ALK, BTK, c-KIT, c-SRC, MET, PDGFRα and FLT3 kinases were tested in vitro for the activity inhibition. Staurosporine was used as a reference molecule (or referred to as a positive control). […]
measured.property: The kinase activity inhibitory rate (%) by the tested compounds at 10 μM MET
Numeric answer plus unit only.

- CC(C)n1c(Nc2cccc(C(F)(F)F)c2)nc2cnc(Nc3ccc(N4CCN(C)CC4)cc3)nc21: 93%
- CN1CCN(c2ccc(Nc3ncc4nc(Nc5ccccc5)[nH]c4n3)cc2)CC1: 0%
- CC(C)n1c(Nc2ccc(C(=O)Nc3cccc(F)c3)cc2)nc2cnc(Nc3ccc(N4CCN(C)CC4)cc3)nc21: 69%

Given the entry COc1cccc(Nc2nc3cnc(Nc4ccc(N5CCN(C)CC5)cc4)nc3n2C(C)C)c1 , what The kinase activity inhibitory rate (%) by the tested compounds at 10 μM MET was observed with MET (Homo sapiens (Human), UniProt P08581)? 52%

====

# measurement.target: ALK (Homo sapiens (Human), UniProt Q9UM73)
# Sequence (Q9UM73 19-1620): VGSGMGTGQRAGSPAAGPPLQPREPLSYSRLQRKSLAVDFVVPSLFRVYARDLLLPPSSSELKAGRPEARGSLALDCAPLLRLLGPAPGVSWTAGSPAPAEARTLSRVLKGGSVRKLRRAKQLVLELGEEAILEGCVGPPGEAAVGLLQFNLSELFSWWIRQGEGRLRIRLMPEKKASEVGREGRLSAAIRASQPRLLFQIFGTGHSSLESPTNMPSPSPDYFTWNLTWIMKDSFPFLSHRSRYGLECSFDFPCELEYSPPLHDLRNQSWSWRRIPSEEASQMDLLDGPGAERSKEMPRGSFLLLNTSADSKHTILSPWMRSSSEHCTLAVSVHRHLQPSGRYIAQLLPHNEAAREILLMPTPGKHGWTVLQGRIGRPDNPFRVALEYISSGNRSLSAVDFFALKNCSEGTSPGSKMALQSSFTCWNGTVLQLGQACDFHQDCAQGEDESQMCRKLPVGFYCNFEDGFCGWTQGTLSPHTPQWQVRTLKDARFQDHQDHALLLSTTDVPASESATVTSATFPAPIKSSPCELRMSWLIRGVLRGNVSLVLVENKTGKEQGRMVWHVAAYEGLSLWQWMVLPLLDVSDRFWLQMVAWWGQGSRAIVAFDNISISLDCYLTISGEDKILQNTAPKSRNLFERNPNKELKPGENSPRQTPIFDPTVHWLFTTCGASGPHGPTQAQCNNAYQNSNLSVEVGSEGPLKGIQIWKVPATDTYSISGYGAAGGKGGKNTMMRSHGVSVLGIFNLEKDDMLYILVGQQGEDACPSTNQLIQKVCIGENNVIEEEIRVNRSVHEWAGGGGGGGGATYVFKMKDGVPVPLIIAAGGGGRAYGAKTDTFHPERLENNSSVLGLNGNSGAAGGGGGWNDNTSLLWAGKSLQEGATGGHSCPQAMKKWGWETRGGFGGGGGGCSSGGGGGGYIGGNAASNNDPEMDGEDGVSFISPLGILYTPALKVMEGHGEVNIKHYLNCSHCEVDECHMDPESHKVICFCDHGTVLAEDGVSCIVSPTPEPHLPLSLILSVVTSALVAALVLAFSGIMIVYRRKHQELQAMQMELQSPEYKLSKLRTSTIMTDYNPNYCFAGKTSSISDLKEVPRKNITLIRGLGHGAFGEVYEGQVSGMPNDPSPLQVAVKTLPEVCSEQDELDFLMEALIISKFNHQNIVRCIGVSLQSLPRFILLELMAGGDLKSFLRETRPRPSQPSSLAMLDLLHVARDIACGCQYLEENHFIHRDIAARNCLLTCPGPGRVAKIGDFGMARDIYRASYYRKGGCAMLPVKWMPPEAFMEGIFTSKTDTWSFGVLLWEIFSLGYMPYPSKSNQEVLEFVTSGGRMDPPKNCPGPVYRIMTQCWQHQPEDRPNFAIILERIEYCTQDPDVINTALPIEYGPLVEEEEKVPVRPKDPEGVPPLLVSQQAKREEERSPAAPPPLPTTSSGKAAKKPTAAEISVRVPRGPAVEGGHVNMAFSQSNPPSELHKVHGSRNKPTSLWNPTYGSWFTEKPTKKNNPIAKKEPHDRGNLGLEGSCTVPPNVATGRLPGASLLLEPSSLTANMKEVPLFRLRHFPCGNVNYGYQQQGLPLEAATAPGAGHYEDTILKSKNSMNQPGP
# assay.explanation: Kinase inhibitory activity, isotopic labeling (γ-33P-ATP)
# Type: biochemical
# stated.conditions: compound at 10 μM
measured.property: The kinase activity inhibitory rate (%) by the tested compounds at 10 μM ALK
Provide only the numeric value, understood in %.

• C#Cc1cccc(Nc2nc3cnc(Nc4ccc(N5CCN(C)CC5)cc4)nc3n2C(C)C)c1 = 80

Given the entry CC(C)n1c(Nc2ccccc2)nc2cnc(Nc3ccc(C(=O)NN4CCN(C)CC4)cc3)nc21 , what The kinase activity inhibitory rate (%) by the tested compounds at 10 μM ALK was observed with ALK (Homo sapiens (Human), UniProt Q9UM73)? 23

Now the molecule CC(C)n1c(Nc2ccc(NC(=O)Nc3ccc(F)c(Cl)c3)cc2)nc2cnc(Nc3ccc(N4CCN(C)CC4)cc3)nc21 97

Now the molecule CC(C)n1c(Nc2cccc(Br)c2)nc2cnc(Nc3ccc(N4CCN(C)CC4)cc3)nc21 33

Now the molecule COc1cccc(Nc2nc3cnc(Nc4ccc(N5CCN(C)CC5)cc4)nc3n2C(C)C)c1 35

Now the molecule C=CC(=O)Nc1cccc(Nc2ncc3nc(Nc4ccccc4)n(C(C)C)c3n2)c1 22

Now the molecule CC(C)n1c(NC2CCCCC2)nc2cnc(Nc3ccc(N4CCN(C)CC4)cc3)nc21 8

====

Known IC50 of a selection of compounds
# System: breast carcinoma cell strain BT474
# assay.explanation: In-vitro tumor cell proliferation inhibition, MTT
# Assay type: cell-based, human
# stated.conditions: Homo sapiens, BT-474, 72 hours
Provide only the numeric value, understood in µM.

• CC(C)n1c(Nc2ccc(F)c(Cl)c2)nc2cnc(Nc3ccc(C(=O)NN4CCN(C)CC4)cc3F)nc21 [Compound 8-5] = 1.86

Fill in the blank: the reported IC50 of COc1cc(C(=O)NN2CCN(C)CC2)ccc1Nc1ncc2nc(Nc3ccccc3)n(C(C)C)c2n1 [Compound 8-7] is ____. 5.82

====

# Tested on: squamous cell carcinoma cell strain A431
# assay.explanation: In-vitro tumor cell proliferation inhibition, MTT
# Assay type: cell-based, human
# stated.conditions: 72 hours
# Source text: The object of this assay was to test the inventive compounds for the inhibitory activity of in-vitro tumor cell proliferation. The MTT (tetreamethyl-azo-zole-salt) colorimetric method was used in this assay. […]
Known log10(IC50) of a selection of compounds
Field: value | Transform: log10 | Quantity: IC50 | Unit: nM

- CN1CCN(c2ccc(Nc3ncc4nc(Nc5ccccc5)n(C)c4n3)cc2)CC1: 3.98
- CN1CCN(c2ccc(Nc3ncc4nc(NCc5ccccc5)n(C5CCCC5)c4n3)cc2)CC1: 3.28
- Cc1nc(Nc2ccc(N3CCN(C)CC3)cc2)nc2c1nc(Nc1ccccc1)n2C(C)C: 3.41

Fill in the blank: the reported log10(IC50) of CN1CCN(c2ccc(Nc3ncc4nc(Nc5ccc(F)c(Cl)c5)n(C5CCCC5)c4n3)cc2)CC1 is ____. 2.80

Now the compound CC(C)n1c(Nc2cccnc2)nc2cnc(Nc3ccc(N4CCN(C)CC4)cc3)nc21 3.96

====

# Tested on: liver cancer cell strain Hep G2
# assay.explanation: In-vitro tumor cell proliferation inhibition, MTT
# Assay type: cell-based, human
# stated.conditions: 72 hours, read-out: HEPG2 (IC50)
measured.property: IC50 (µM)
Provide only the numeric value, understood in µM.

- CN1CCN(c2ccc(Nc3ncc4nc(Nc5cccc(F)c5)n(C5CCCC5)c4n3)cc2)CC1: 9.24
- CN1CCN(c2ccc(Nc3ncc4nc(Nc5ccc(Br)cc5)n(C5CCCC5)c4n3)cc2)CC1: 5.93
- CC(C)n1c(Nc2cccc(C(F)(F)F)c2)nc2cnc(Nc3ccc(N4CCN(C)CC4)cc3)nc21: 10.4

Continue with the compound presented below.
Fill in the blank: the reported IC50 of Cc1nc(Nc2ccc(N3CCN(C)CC3)cc2)nc2c1nc(Nc1ccccc1)n2C(C)C is ____. 8.46

====

Known The kinase activity inhibitory rate (%) by the tested compounds at 10 μM PDGFRα of a selection of compounds
# measurement.target: UniProtKB P16234
# Sequence (P16234 24-1089): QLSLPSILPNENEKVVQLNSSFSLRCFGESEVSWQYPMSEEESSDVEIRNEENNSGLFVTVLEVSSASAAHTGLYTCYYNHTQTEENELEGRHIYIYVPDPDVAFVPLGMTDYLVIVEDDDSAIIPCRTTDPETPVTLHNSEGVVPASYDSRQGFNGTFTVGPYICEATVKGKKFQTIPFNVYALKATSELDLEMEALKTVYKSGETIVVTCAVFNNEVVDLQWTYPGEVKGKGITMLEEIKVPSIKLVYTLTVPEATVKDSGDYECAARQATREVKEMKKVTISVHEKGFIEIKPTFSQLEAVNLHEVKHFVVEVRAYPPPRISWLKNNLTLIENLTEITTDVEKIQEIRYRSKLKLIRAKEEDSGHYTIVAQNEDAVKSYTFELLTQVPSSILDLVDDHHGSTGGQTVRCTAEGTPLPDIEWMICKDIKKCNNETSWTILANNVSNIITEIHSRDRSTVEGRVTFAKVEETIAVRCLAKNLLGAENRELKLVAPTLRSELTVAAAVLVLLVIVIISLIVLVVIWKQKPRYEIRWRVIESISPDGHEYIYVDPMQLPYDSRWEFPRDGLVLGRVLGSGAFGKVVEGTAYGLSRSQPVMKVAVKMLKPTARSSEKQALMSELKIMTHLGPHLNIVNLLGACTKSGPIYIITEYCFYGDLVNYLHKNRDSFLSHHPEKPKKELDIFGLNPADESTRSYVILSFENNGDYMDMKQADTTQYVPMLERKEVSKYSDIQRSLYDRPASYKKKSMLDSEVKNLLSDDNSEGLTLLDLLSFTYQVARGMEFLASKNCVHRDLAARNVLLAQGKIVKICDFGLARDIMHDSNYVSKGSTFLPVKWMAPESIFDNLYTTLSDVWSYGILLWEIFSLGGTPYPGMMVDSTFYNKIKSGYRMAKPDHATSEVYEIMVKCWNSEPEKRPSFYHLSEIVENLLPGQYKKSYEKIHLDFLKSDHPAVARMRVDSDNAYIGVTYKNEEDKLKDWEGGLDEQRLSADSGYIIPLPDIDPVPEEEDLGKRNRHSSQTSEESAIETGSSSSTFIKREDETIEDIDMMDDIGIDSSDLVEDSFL
# assay.explanation: Kinase inhibitory activity, isotopic labeling (γ-33P-ATP)
# Assay type: biochemical
# stated.conditions: compound at 10 μM
Provide only the numeric value, understood in %.

The following compounds have reported results that may help.
• C#Cc1cccc(Nc2nc3cnc(Nc4ccc(N5CCN(C)CC5)cc4)nc3n2C(C)C)c1 [Compounds 8-12] = 55
• CC(C)n1c(Nc2cccc(C(F)(F)F)c2)nc2cnc(Nc3ccc(N4CCN(C)CC4)cc3)nc21 [Compounds 8-16] = 39
• COc1cccc(Nc2nc3cnc(Nc4ccc(N5CCN(C)CC5)cc4)nc3n2C(C)C)c1 [Compounds 8-17] = 72
• CC(C)n1c(NC2CCCCC2)nc2cnc(Nc3ccc(N4CCN(C)CC4)cc3)nc21 [Compounds 8-30] = 21
• CC(C)n1c(Nc2cccc(Br)c2)nc2cnc(Nc3ccc(N4CCN(C)CC4)cc3)nc21 [Compounds 8-11] = 58
• CC(C)n1c(Nc2cccnc2)nc2cnc(Nc3ccc(N4CCN(C)CC4)cc3)nc21 [Compounds 8-29] = 42

Continue with the compound presented below.
Fill in the blank: the reported The kinase activity inhibitory rate (%) by the tested compounds at 10 μM PDGFRα of CN1CCN(c2ccc(Nc3ncc4nc(Nc5ccccc5)n(C5CC5)c4n3)cc2)CC1 [Compounds 8-23] is ____. 28

====

Known pIC50 of a selection of compounds
# Tested on: colon cancer cell strain SW480
# assay.explanation: In-vitro tumor cell proliferation inhibition, MTT
# Format: cell-based, human
# stated.conditions: Homo sapiens, SW480, 72 hours
# Description: The object of this assay was to test the inventive compounds for the inhibitory activity of in-vitro tumor cell proliferation. The MTT (tetreamethyl-azo-zole-salt) colorimetric method was used in this assay. […]
pIC50: −log10 of the molar value.

• COc1cc(C(=O)NN2CCN(C)CC2)ccc1Nc1ncc2nc(Nc3ccccc3)n(C(C)C)c2n1 = < 5.00

Continue with the compound presented below.
Given the entry CC(C)n1c(Nc2ccc(F)c(Cl)c2)nc2cnc(Nc3ccc(C(=O)NN4CCN(C)CC4)cc3F)nc21 , what pIC50 was observed with colon cancer cell strain SW480? < 5.00

====

Known log10 of IC50 of a selection of compounds
# Test system: squamous cell carcinoma cell strain A431
# assay.explanation: In-vitro tumor cell proliferation inhibition, MTT
# Assay type: cell-based, human
# stated.conditions: 72 hours
Field: value | Transform: log10 | Quantity: IC50 | Unit: µM

- CN1CCN(c2ccc(Nc3ncc4nc(Nc5cccc(Cl)c5)n(C5CCCC5)c4n3)cc2)CC1: -1.10
- COc1cccc(Nc2nc3cnc(Nc4ccc(N5CCN(C)CC5)cc4)nc3n2C(C)C)c1: 0.93
- Cc1cccc(Nc2nc3cnc(Nc4ccc(N5CCN(C)CC5)cc4)nc3n2C2CCCC2)c1: -0.60
- CC(C)n1c(Nc2cccc(Br)c2)nc2cnc(Nc3ccc(N4CCN(C)CC4)cc3)nc21: 0.88
- CN1CCN(c2ccc(Nc3ncc4nc(Nc5cc(F)ccc5F)n(C5CCCC5)c4n3)cc2)CC1: -0.70
- CCN1CCN(Cc2ccc(Nc3ncc4nc(Nc5ccccc5)n(C5CCCC5)c4n3)cc2)CC1: -0.30

Fill in the blank: the reported log10 of IC50 of CC(C)n1c(Nc2ccccc2)nc2cnc(Nc3ccc(C(=O)NC4CCN(C)CC4)cc3)nc21 is ____. 0.18

Now the compound CN1CCN(c2ccc(Nc3ncc4nc(Nc5cccc(O)c5)n(C5CCCC5)c4n3)cc2)CC1 -0.61

Now the compound CN1CCN(c2ccc(Nc3ncc4nc(Nc5cc(Cl)cc(Cl)c5)n(C5CCCC5)c4n3)cc2)CC1 0.31

Now the compound CC(C)n1c(Nc2cccc(C(F)(F)F)c2)nc2cnc(Nc3ccc(N4CCN(C)CC4)cc3)nc21 0.77

Now the compound C#Cc1cccc(Nc2nc3cnc(Nc4ccc(N5CCN(C)CC5)cc4)nc3n2C2CCCC2)c1 -0.37

Now the compound CC(C)n1c(Nc2ccc(OCc3cccc(F)c3)c(Cl)c2)nc2cnc(Nc3ccc(N4CCOCC4)cc3)nc21 0.35

Now the compound CN1CCN(c2ccc(Nc3ncc4nc(Nc5cccc(F)c5)n(C5CCCC5)c4n3)cc2)CC1 -0.23

Now the compound CN1CCN(c2ccc(Nc3ncc4nc(Nc5cc(Cl)c(Cl)cc5Cl)n(C5CCCC5)c4n3)cc2)CC1 0.76
